targetUnderTest: T1, MPDZ_10, O75970
T1 sequence (O75970 1624-1722, limits assumed, looked up): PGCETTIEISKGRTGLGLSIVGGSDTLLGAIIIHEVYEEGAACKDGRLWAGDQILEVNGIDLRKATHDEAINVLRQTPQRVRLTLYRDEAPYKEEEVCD
testProtocol: holdup assay
Parameters: key: below the threshold = too weak to quantify, mostly under pKd 3.1 to 4
measurementParameters: plain residues with an end cap or a label only (N-terminal biotin on a linker: ttds)
measurementLabel: pKd

INSERT INTO results (binder, measurementlabel, recordedmeasurement) VALUES
  ('GRLLGLETNV [ARHGEF26, Q96DR7]', 'pKd', 'below the threshold'),
  ('PFRSRSPSEV [GPR6, P46095]', 'pKd', 'below the threshold'),
  ('QRPYRRESEI [KCNJ12, Q14500]', 'pKd', 'below the threshold'),
  ('SHSSKGETAV [FZD7, O75084]', 'pKd', 'below the threshold'),
  ('KQVVPFSSSV [GDA, Q9Y2T3]', 'pKd', 3.93),
  ('PPRQRSETQV [HPV82-E6, Q9IR59]', 'pKd', 'below the threshold');
